- protocol-summary: Metabolic stability in human liver microsomes
- Assay type: in vitro ADME
- measurement-context: calculated from liver microsome data
Exercise: for every item that follows, state its recorded Predicted Fmax (maximum oral bioavailability) Human.
Provide the reading as a plain figure in %.

Tell me the measured Predicted Fmax (maximum oral bioavailability) Human of C[C@]12C[C@H](c3ccc(C#C/C=N/OCc4ccccc4)cc3)C3=C4CCC(=O)C=C4CCC3C1CC[C@@]2(O)C(F)(F)C(F)(F)F (stereo partly shown) [Example 24A] , please.
34

Can you handle C[C@]12C[C@H](c3ccc(C#CCNC(=O)Nc4ccccc4)cc3)C3=C4CCC(=O)C=C4CC[C@H]3[C@@H]1CC[C@@]2(O)C(F)(F)C(F)(F)F next?
9

Can you handle C[C@]12C[C@H](c3ccc(C#CCNC(=O)Nc4ccc(F)cc4)cc3)C3=C4CCC(=O)C=C4CC[C@H]3[C@@H]1CC[C@@]2(O)C(F)(F)C(F)(F)F next?
55

Can you handle CCO/N=C/C#Cc1ccc([C@H]2C[C@@]3(C)[C@@H](CC[C@@]3(O)C(F)(F)C(F)(F)F)[C@@H]3CCC4=CC(=O)CCC4=C32)cc1 [Example 25A] next?
47
